Target: KRAS^G12D/cRAF (Homo sapiens, UniProt P01116, G12D)
Sequence (P01116 1-188 isoform P01116-2 G12D): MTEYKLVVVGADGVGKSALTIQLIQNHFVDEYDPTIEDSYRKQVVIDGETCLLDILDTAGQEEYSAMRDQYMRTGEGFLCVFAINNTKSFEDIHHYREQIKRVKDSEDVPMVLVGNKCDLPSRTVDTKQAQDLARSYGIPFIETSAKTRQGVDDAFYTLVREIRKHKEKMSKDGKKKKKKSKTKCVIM
Experiment: KRAS G12D/cRAF binding test (Alphalisa)
Conditions: His-tagged KRAS G12D + GMPPNP, GST-tagged cRAF; class symbols

COMPOUND	IC50
[2H]C([2H])([2H])OC[C@]12CC[C@]([2H])(CN(c3nc(OC[C@@]45CCCN4C[C@H](F)C5)nc4c(F)c(-c5cc(O)cc6ccc(F)c(C#C)c56)ncc34)C1)N2 [Example 47]	50 to 500 nM
C#Cc1c(F)ccc2cc(O)cc(-c3ncc4c(N5CC6CCC(/C=C\C)(C5)N6)nc(OC[C@@]56CCCN5C[C@H](F)C6)nc4c3F)c12 (stereo partly shown) [Example 29]	50 to 500 nM
[2H]C([2H])([2H])OCC12CCC(C)(CN(c3nc(OC[C@@]45CCCN4C[C@H](F)C5)nc4c(F)c(-c5cc(O)cc6ccc(F)c(C#C)c56)ncc34)C1)N2 (stereo partly shown) [Example 18]	50 to 500 nM
C#Cc1c(F)ccc2cc(O)cc(-c3ncc4c(N5CC6(C)CCC(C)(C5)N6)nc(OC[C@@]56CCCN5C[C@H](F)C6)nc4c3F)c12 [Example 20]	50 to 500 nM
C#Cc1c(F)ccc2cc(O)cc(-c3ncc4c(N5CC6CCC(CC)(C5)N6)nc(OC[C@@]56CCCN5C[C@H](F)C6)nc4c3F)c12 (stereo partly shown) [Example 19]	50 to 500 nM
C#Cc1c(F)ccc2cc(O)cc(-c3ncc4c(N5CC6CCC(CN(C)C(C)=O)(C5)N6)nc(OC[C@@]56CCCN5C[C@H](F)C6)nc4c3F)c12 (stereo partly shown) [Example 25]	50 to 500 nM
[2H]C([2H])([2H])OC[C@@]12CC[C@@]([2H])(CN(c3nc(OC[C@@]45CCCN4C[C@H](F)C5)nc4c(F)c(-c5cc(O)cc6ccc(F)c(C#C)c56)ncc34)C1)N2 [Example 48]	> 500 nM
C#Cc1c(F)ccc2cc(O)cc(-c3ncc4c(N5CC6CCC(CSC)(C5)N6)nc(OC[C@@]56CCCN5C[C@H](F)C6)nc4c3F)c12 (stereo partly shown) [Example 10]	> 500 nM
C#Cc1c(F)ccc2cc(O)cc(-c3ncc4c(N5CC6CCC(COC(F)F)(C5)N6)nc(OC[C@@]56CCCN5C[C@H](F)C6)nc4c3F)c12 (stereo partly shown) [Example 4]	50 to 500 nM
C#Cc1c(F)ccc2cc(O)cc(-c3ncc4c(N5CC6CCC(C(=O)O)(C5)N6)nc(OC[C@@]56CCCN5C[C@H](F)C6)nc4c3F)c12 (stereo partly shown) [Example 22]	50 to 500 nM

###

Molecular target: KRAS^G12D/cRAF (Homo sapiens, UniProt P01116, G12D)
Test: KRAS G12D/cRAF binding test (Alphalisa)
Settings: His-tagged KRAS G12D + GMPPNP, GST-tagged cRAF; numeric values
API: label(entry) gives T if the entry's IC50 is strictly smaller than 50 nM; on equality or larger values it gives F.

COMPOUND	LABEL_CLASS
C#Cc1c(F)ccc2cc(O)cc(-c3ncc4c(N5C[C@H]6CC[C@@](/C=C/F)(C5)N6)nc(OC[C@@]56CCCN5C[C@H](F)C6)nc4c3F)c12	F
C#Cc1c(F)ccc2cc(O)cc(-c3ncc4c(N5C[C@@H]6CC[C@](/C=C\F)(C5)N6)nc(OC[C@@]56CCCN5C[C@H](F)C6)nc4c3F)c12	T
C#Cc1c(F)ccc2cc(O)cc(-c3ncc4c(N5C[C@@H]6CC[C@](/C=C/F)(C5)N6)nc(OC[C@@]56CCCN5C[C@H](F)C6)nc4c3F)c12	T
C#Cc1c(F)ccc2cc(O)cc(-c3ncc4c(N5C[C@@H]6CC[C@](CC)(C5)N6)nc(OC[C@@]56CCCN5C[C@H](F)C6)nc4c3F)c12	F
[2H]C([2H])([2H])C12CCC(CN(c3nc(OC[C@@]45CCCN4C[C@H](F)C5)nc4c(F)c(-c5cc(O)cc6ccc(F)c(C#C)c56)ncc34)C1)N2 (stereo partly shown)	T
[2H]C([2H])([2H])OC[C@@]12CC[C@@H](CN(c3nc(OC[C@@]45CCCN4C[C@H](F)C5)nc4c(F)c(-c5cc(O)cc6ccc(F)c(C#C)c56)nc(OC)c34)C1)N2	T
C#Cc1c(F)ccc2cc(O)cc(-c3ncc4c(N5C[C@H]6CC[C@@](C=C)(C5)N6)nc(OC[C@@]56CCCN5C[C@H](F)C6)nc4c3F)c12	T
C#Cc1c(F)ccc2cc(O)cc(-c3ncc4c(N5C[C@H]6CC[C@@](CC)(C5)N6)nc(OC[C@@]56CCCN5C[C@H](F)C6)nc4c3F)c12	F
C#Cc1c(F)ccc2cc(O)cc(-c3ncc4c(N5CC6CCC(COC)(C5)N6)nc(OC[C@@]56CCCN5C[C@H](F)C6)nc4c3F)c12 (stereo partly shown)	F
C#Cc1c(F)ccc2cc(O)cc(-c3ncc4c(N5C[C@@H]6CC[C@](C=C)(C5)N6)nc(OC[C@@]56CCCN5C[C@H](F)C6)nc4c3F)c12	T
[2H]C([2H])([2H])OC[C@]12CC[C@H](CN(c3nc(OC[C@@]45CCCN4C[C@H](F)C5)nc4c(F)c(-c5cc(O)cc6ccc(F)c(C#C)c56)nc(OC)c34)C1)N2	F
C#Cc1c(F)ccc2cc(O)cc(-c3ncc4c(N5CC6CCC(/C=C\F)(C5)N6)nc(OC[C@@]56CCCN5C[C@H](F)C6)nc4c3F)c12 (stereo partly shown)	F
[2H]C([2H])([2H])[C@@]12CC[C@@H](CN(c3nc(OC[C@@]45CCCN4C[C@H](F)C5)nc4c(F)c(-c5cc(O)cc6ccc(F)c(C#C)c56)ncc34)C1)N2	T
C#Cc1c(F)ccc2cc(O)cc(-c3ncc4c(N5C[C@H]6CC[C@@](C)(C5)N6)nc(OC[C@@]56CCCN5C[C@H](F)C6)nc4c3F)c12	T
C#Cc1c(F)ccc2cc(O)cc(-c3ncc4c(N5CC6CCC(C=C)(C5)N6)nc(OC[C@@]56CCCN5C[C@H](F)C6)nc4c3F)c12 (stereo partly shown)	F
C#Cc1c(F)ccc2cc(O)cc(-c3ncc4c(N5C[C@H]6CC[C@@](/C=C\F)(C5)N6)nc(OC[C@@]56CCCN5C[C@H](F)C6)nc4c3F)c12	T

###

Experiment: Pharmacokinetic experiment in mice
Settings: male, ICR, mouse, plasma, iv, 2 mg/kg
The label depends only on half-life: rule met if it is at least 5 h, rule not met if it is smaller.

COMPOUND	LABEL_CLASS
C#Cc1c(F)ccc2cc(O)cc(-c3ncc4c(N5CC6CCC(C5)N6)nc(OC[C@@]56CCCN5C[C@H](F)C6)nc4c3F)c12 [Positive Compounds, reference compound]	rule not met
[2H]C([2H])([2H])[C@@]12CC[C@@H](CN(c3nc(OC[C@@]45CCCN4C[C@H](F)C5)nc4c(F)c(-c5cc(O)cc6ccc(F)c(C#C)c56)ncc34)C1)N2	rule met
[2H]C([2H])([2H])OC[C@]12CC[C@H](CN(c3nc(OC[C@@]45CCCN4C[C@H](F)C5)nc4c(F)c(-c5cc(O)cc6ccc(F)c(C#C)c56)nc(OCC)c34)C1)N2	rule met
C#Cc1c(F)ccc2cc(O)cc(-c3ncc4c(N5C[C@@H]6CC[C@](CC)(C5)N6)nc(OC[C@@]56CCCN5C[C@H](F)C6)nc4c3F)c12	rule met
[2H]C([2H])([2H])OC[C@@]12CC[C@@H](CN(c3nc(OC[C@@]45CCCN4C[C@H](F)C5)nc4c(F)c(-c5cc(O)cc6ccc(F)c(C#C)c56)nc(OC)c34)C1)N2	rule met

###

Experiment: in vivo
Details: male, ICR, mouse, po, 10 mg/kg

COMPOUND	UNIT_ABBREV	AUC(0-t)
[2H]C([2H])([2H])OCC12CCC(CN(c3nc(OC[C@@]45CCCN4C[C@H](F)C5)nc4c(F)c(-c5cc(O)c(F)c6ccc(F)c(C#C)c56)ncc34)C1)N2 (stereo partly shown) [Example 14]	ng·h/mL	607

###

Experiment: Pharmacokinetic experiment in mice
Conditions: male, ICR, mouse, plasma, iv, 2 mg/kg

COMPOUND	AUC(0-t) / ng·h/mL
[2H]C([2H])([2H])OC[C@@]12CC[C@@H](CN(c3nc(OC[C@@]45CCCN4C[C@H](F)C5)nc4c(F)c(-c5cc(O)cc6ccc(F)c(C#C)c56)nc(OC)c34)C1)N2 [Example 50]	1100
C#Cc1c(F)ccc2cc(O)cc(-c3ncc4c(N5CC6CCC(C5)N6)nc(OC[C@@]56CCCN5C[C@H](F)C6)nc4c3F)c12 [Positive Compounds, reference compound]	337
C#Cc1c(F)ccc2cc(O)cc(-c3ncc4c(N5C[C@H]6CC[C@@](C=C)(C5)N6)nc(OC[C@@]56CCCN5C[C@H](F)C6)nc4c3F)c12 [Example 57]	375
